assay: Serum and CSF minocycline steady-state levels in SCI trial subjects; conditions: 800 mg loading dose tapered by 100 mg every 12 h to 400 mg, IV, 7 days
endpointLabel: serum steady-state concentration

Dear colleague, I am looking for the recorded serum steady-state concentration of the following compound: `CN(C)c1ccc(O)c2c1C[C@H]1C[C@H]3[C@H](N(C)C)C(O)=C(C(N)=O)C(=O)[C@@]3(O)C(O)=C1C2=O`
12.7 µg/mL

====

Experiment: Serum and CSF minocycline steady-state levels in SCI trial subjects
Conditions: 800 mg loading dose tapered by 100 mg every 12 h to 400 mg, IV, 7 days
Protocol: Drug or placebo infusions were continued for a total of 14 doses i.e., for 7 days after injury (FIG. 1). All infusions were administered through a subclavian central venous catheter for a 30-min period. Each sample was centrifuged at 2000 rpm for 5 min to separate cellular matter. The supernatant was flash frozen and stored at −80° C. in aliquots.
endpointLabel: CSF steady state (µg/mL)
Give your result in µg/mL as a bare value.

Please look up its CSF steady state: CN(C)c1ccc(O)c2c1C[C@H]1C[C@H]3[C@H](N(C)C)C(O)=C(C(N)=O)C(=O)[C@@]3(O)C(O)=C1C2=O [minocycline]
2.3
